Quick list: GI50 per entry.
Test system: HOP-92
Assay: NCI tumour cell line growth inhibition, 48 h
The source made the active and inactive calls. Cut-off read from the data, not from the text of the source: active = GI50 up to about 1.1 µM and inactive = higher.

Value of measured GI50 for the entry COc1c(O)cc2c(c1O)C(=O)/C(=C/c1ccc(O)cc1)CO2 : 36.1 µM (inactive)

Value of measured GI50 for the entry CSc1ccc(N2C(=O)C3c4[nH]c5ccccc5c4C4CCC(C(C)(C)C)CC4C3C2=O)cc1 (centres undefined) : 11.3 µM (inactive)

Value of measured GI50 for the entry Cc1ccc(NC=O)c(-c2c(N)[nH]c(=S)[nH]c2=O)c1 : > 100 µM (inactive)

Value of measured GI50 for the entry COc1ccc(/C=N/n2cnc3c(c2=O)S/C(=C2/SC(=S)N(c4ccc(C)cc4)C2=O)N3c2ccccc2)cc1 : 25.8 µM (inactive)

Value of measured GI50 for the entry CC(C)(C)OC(=O)NCC(O)CNC(=O)OC(C)(C)C : > 100 µM (inactive)

Value of measured GI50 for the entry CSc1cc(Cl)c(C)cc1S(=O)(=O)NC(=O)Nc1ccc(Cl)cc1 : 24.4 µM (inactive)

Value of measured GI50 for the entry CCc1cc2c(O)c(c1)Cc1cc(CC)cc(c1O)Cc1cc(CC)cc(c1O)Cc1cc(CC)cc(c1O)Cc1cc(CC)cc(c1O)Cc1cc(CC)cc(c1O)Cc1cc(CC)cc(c1O)C2 : 44 µM (inactive)

Value of measured GI50 for the entry O=C(N/N=C\c1cccc(O)c1)c1ccncc1 : > 100 µM (inactive)

Value of measured GI50 for the entry COc1cc([C@@H]2c3cc4c(cc3[C@@H](NC(=O)c3ccc(C(C)=O)cc3)C3COC(=O)[C@@H]32)OCO4)cc(OC)c1O (some centres undefined) : 1.19 µM (inactive)

---

System: HOP-62
Experiment: NCI tumour cell line growth inhibition, 48 h
Activity calls are given as the source filed them. Cut-off read from the data, not from the text of the source: active = GI50 up to about 1.1 µM and inactive = higher.
observation_type: GI50

Would you please look over these solved cases?
compound	GI50
O=C(CC(=O)c1ccccc1)c1ccccc1.O=C(CC(=O)c1ccccc1)c1ccccc1.O=C(CC(=O)c1ccccc1)c1ccccc1.[SiH4]	7.59 µM (inactive)
CC(=O)N/C=C/c1cc(O)ccc1O	> 41 µM (inactive)
CC1(C)CC(=O)C(/C(=N/NC(=S)NN)C(=O)Nc2nc3ccc([N+](=O)[O-])cc3s2)C(=O)C1	> 100 µM (inactive)
CN(Cc1ccccc1)C(=NC#N)N(C)Cc1ccccc1	> 100 µM (inactive)
CSC1=NS(=O)(=O)c2cc(C(=O)NN(C)C(=O)c3cc4c(cc3Cl)SC(SC)=NS4(=O)=O)c(Cl)cc2S1	> 10 µM (inactive)

Moving on to another compound below.
Value of measured GI50 for the entry CC1=C[C@@H]2Cc3nc4cc(Cl)ccc4c(N)c3[C@H](C1)C2 : 11.2 µM (inactive)

---

Quick list: GI50 per entry.
System: RXF 393
Assay: NCI tumour cell line growth inhibition, 48 h
Calls of active or inactive are those of the source. Cut-off read from the data, not from the text of the source: active = GI50 up to about 1.1 µM and inactive = higher. Peptide text beside a SMILES is read from it. * marks the point of attachment. Trt = c1ccc(C(c2ccccc2)(c2ccccc2)*)cc1; Cbz = O=C(OCc1ccccc1)*

Would you please look over these solved cases?
compound	result
Cc1ccc(Nc2cccc3c2C(=O)c2cccc(Nc4ccc(C)cc4S(=O)(=O)O)c2C3=O)c(S(=O)(=O)O)c1	> 100 µM (inactive)
N=C(N)SCc1ccc(Cl)cc1Cl.O=[N+]([O-])c1c(O)c(Cl)cc(Cl)c1Cl	12.8 µM (inactive)
CNC(=O)OC(COC)CN1CCN(c2ccccc2C)CC1 (stereo not given)	> 10 µM (inactive)
CCCCCCCCCCCCCCCCCCNc1ccn(C2OC(COP(=O)(O)OCCCCCCCCCCCCCCCC)C(O)C2O)c(=O)n1 (stereo not given)	> 100 µM (inactive)
O=C(Nc1ccccc1Cl)c1ccc([N+](=O)[O-])cc1	33.3 µM (inactive)

Value of measured GI50 for the entry C/C(Cl)=N\OC(=O)Nc1ccc([N+](=O)[O-])cc1 : 16.8 µM (inactive)

Value of measured GI50 for the entry CCOC(=O)/C=C(/C(=O)OCC)n1cc(C)c(=O)n(Cc2cn(COCCOC(C)=O)nn2)c1=O : 23.7 µM (inactive)

Value of measured GI50 for the entry C[C@@H]1CC[C@@]2(OC1)O[C@H]1C[C@H]3[C@@H]4CC[C@H]5C[C@@H](OC6OC(CO)C(OC7OC(CO)C(O)C(OC8OCC(O)C(O)C8O)C7OC7OC(CO)C(O)C(O)C7O)C(O)C6O)[C@H](O)C[C@]5(C)[C@H]4CC[C@]3(C)[C@H]1[C@@H]2C (stereo not given in full) : 9.98 µM (inactive)

Value of measured GI50 for the entry COc1ccc(OC)c2c1C(=O)C(O)=C(Cl)C2=O : > 100 µM (inactive)

Value of measured GI50 for the entry COC(=O)C(CO)NC(=O)C(CSC(c1ccccc1)(c1ccccc1)c1ccccc1)NC(=O)OCc1ccccc1 (stereo not given) (Cbz-Cys(Trt)-Ser-OMe; configuration not given here) : 8.91 µM (inactive)
